- STUDY TARGET: Aminopeptidase N (Plasmodium falciparum (isolate 3D7))
- EXPERIMENT DESCRIPTION: malaria alanyl aminopeptidase activity blockers – biochemical, fluorogenic H-Leu-NHMec substrate, 1536-well (AID 1445)
- RUN CONDITIONS: recombinant M1AAP, H-Leu-NHMec fluorogenic kinetic assay; at 30 µM
Among all 220,000 compounds or so, about 910 (0.41%) were called active.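 How the source made its calls: active means primary inhibition above the hit cutoff, then over 50% inhibition at one or more dose response concentrations (cut at about 23% in these data, passing the limit was not always enough); inconclusive means conflicting primary data, or primary hits not chosen for dose response; inactive means low primary inhibition, or under 50% at every dose.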 The sample holds actives, similar compounds and a random draw of the others, so the mix is not that of the screen. Measured potencies and affinities stand elsewhere.
Outcome codes: yes for active, no for inactive

>  <MOLECULE>
O=C(CSc1nnc(SCc2ccc(Cl)cc2)s1)N/N=C/c1ccccc1C(=O)O

>  <STUDY TARGET>
Aminopeptidase N (Plasmodium falciparum (isolate 3D7))

>  <QUALITATIVE LABEL>
no

$$$$
>  <MOLECULE>
CCOC(=O)Cn1c(=O)c2c(nc(N3CCOCC3)n2C)n(C)c1=O

>  <STUDY TARGET>
Aminopeptidase N (Plasmodium falciparum (isolate 3D7))

>  <QUALITATIVE LABEL>
no

$$$$
>  <MOLECULE>
COCC(=O)N(Cc1ccccc1)c1ccccn1

>  <STUDY TARGET>
Aminopeptidase N (Plasmodium falciparum (isolate 3D7))

>  <QUALITATIVE LABEL>
no

$$$$
>  <MOLECULE>
COC(=O)c1cc(Br)c(N)cc1OC

>  <STUDY TARGET>
Aminopeptidase N (Plasmodium falciparum (isolate 3D7))

>  <QUALITATIVE LABEL>
no

$$$$
>  <MOLECULE>
COc1cc2c(cc1OC)-c1cc(Nc3ccccc3)nc(=O)n1CC2

>  <STUDY TARGET>
Aminopeptidase N (Plasmodium falciparum (isolate 3D7))

>  <QUALITATIVE LABEL>
no

$$$$
>  <MOLECULE>
COc1ccc2c(c1)C(=O)N(c1ccccc1OC)C(=O)C2(C)C

>  <STUDY TARGET>
Aminopeptidase N (Plasmodium falciparum (isolate 3D7))

>  <QUALITATIVE LABEL>
no

$$$$
>  <MOLECULE>
CCOCCn1cnc2sc(C(=O)NCC(=O)OCC)c(C)c2c1=O

>  <STUDY TARGET>
Aminopeptidase N (Plasmodium falciparum (isolate 3D7))

>  <QUALITATIVE LABEL>
no

$$$$
>  <MOLECULE>
CN1CCN(CC(=O)NC2CCCCC2)CC1

>  <STUDY TARGET>
Aminopeptidase N (Plasmodium falciparum (isolate 3D7))

>  <QUALITATIVE LABEL>
no

$$$$
>  <MOLECULE>
O=C(CCCN1C(=O)S/C(=C\c2ccccc2)C1=O)NNC(=O)c1ccccc1O

>  <STUDY TARGET>
Aminopeptidase N (Plasmodium falciparum (isolate 3D7))

>  <QUALITATIVE LABEL>
no

$$$$
>  <MOLECULE>
COc1cc(C2c3c(-c4ccccc4O)n[nH]c3C(=O)N2Cc2ccco2)cc(OC)c1OC (configuration not stated)

>  <STUDY TARGET>
Aminopeptidase N (Plasmodium falciparum (isolate 3D7))

>  <QUALITATIVE LABEL>
no

$$$$
>  <MOLECULE>
CCOc1cccc(Nc2cc3n(c(=O)n2)CCc2cc(OC)c(OC)cc2-3)c1

>  <STUDY TARGET>
Aminopeptidase N (Plasmodium falciparum (isolate 3D7))

>  <QUALITATIVE LABEL>
no

$$$$
>  <MOLECULE>
O=C(Cn1cnc2c(nnn2Cc2ccccc2)c1=O)c1ccc(Cl)cc1

>  <STUDY TARGET>
Aminopeptidase N (Plasmodium falciparum (isolate 3D7))

>  <QUALITATIVE LABEL>
no

$$$$
>  <MOLECULE>
COC(=O)Cc1[nH]n(-c2ccccc2)c(=O)c1C=Nc1ccc(C)cc1

>  <STUDY TARGET>
Aminopeptidase N (Plasmodium falciparum (isolate 3D7))

>  <QUALITATIVE LABEL>
no

$$$$
>  <MOLECULE>
Cc1oc(S(=O)(=O)N(C)C)cc1C(=O)Nc1ccc(F)cc1

>  <STUDY TARGET>
Aminopeptidase N (Plasmodium falciparum (isolate 3D7))

>  <QUALITATIVE LABEL>
no

$$$$
>  <MOLECULE>
O=C(CSc1nnc(SCc2ccccc2)s1)N/N=C/c1ccc(Cl)cc1Cl

>  <STUDY TARGET>
Aminopeptidase N (Plasmodium falciparum (isolate 3D7))

>  <QUALITATIVE LABEL>
no

$$$$
>  <MOLECULE>
COc1cc2c(cc1OC)-c1cc(Nc3ccc4c(c3)OCCO4)nc(=O)n1CC2

>  <STUDY TARGET>
Aminopeptidase N (Plasmodium falciparum (isolate 3D7))

>  <QUALITATIVE LABEL>
yes

$$$$
>  <MOLECULE>
COc1cc(C2c3c(-c4cc(C)cc(C)c4O)n[nH]c3C(=O)N2CCCO)cc(OC)c1OC (configuration not stated)

>  <STUDY TARGET>
Aminopeptidase N (Plasmodium falciparum (isolate 3D7))

>  <QUALITATIVE LABEL>
yes

$$$$
>  <MOLECULE>
CC1=NN(c2ccccc2)C(=O)C1C=Nc1ccc(N(C)C)cc1 (configuration not stated)

>  <STUDY TARGET>
Aminopeptidase N (Plasmodium falciparum (isolate 3D7))

>  <QUALITATIVE LABEL>
no

$$$$
>  <MOLECULE>
O=C(O)COc1ccccc1/C=N/NC(=O)CSc1nnc(SCc2ccccc2)s1

>  <STUDY TARGET>
Aminopeptidase N (Plasmodium falciparum (isolate 3D7))

>  <QUALITATIVE LABEL>
no

$$$$
>  <MOLECULE>
O=C(O)COc1ccccc1/C=N/NC(=O)CSc1nnc(SCc2cccc3ccccc23)s1

>  <STUDY TARGET>
Aminopeptidase N (Plasmodium falciparum (isolate 3D7))

>  <QUALITATIVE LABEL>
no

$$$$
>  <MOLECULE>
CC1=NN(c2ccccc2)C(=O)C1C(=O)c1ccccc1 (configuration not stated)

>  <STUDY TARGET>
Aminopeptidase N (Plasmodium falciparum (isolate 3D7))

>  <QUALITATIVE LABEL>
no

$$$$
>  <MOLECULE>
O=C1Nc2ccccc2N(O)N1c1ccc(S(=O)(=O)Nc2ccccn2)cc1

>  <STUDY TARGET>
Aminopeptidase N (Plasmodium falciparum (isolate 3D7))

>  <QUALITATIVE LABEL>
no

$$$$

# credit: PubChem BioAssay AID1445
